All figures here come from ChEMBL document CHEMBL4024739.

tested on: Staphylococcus aureus; assay: Antibacterial activity against Staphylococcus aureus ATCC 25923 by spectrophotometric method; type: functional
In this section, each of the molecules is paired with its reported MIC.

molecule	MIC
N#CC1(C#N)[C@@H](c2cccc([N+](=O)[O-])c2)C2CSCN2[C@@]12C(=O)Nc1ccccc12 (stereo partly drawn)	> 50 µg/mL
CCOC(=O)[C@]1(C#N)[C@@H](c2c(F)cccc2Cl)C2CSCN2[C@@]12C(=O)Nc1ccccc12 (stereo partly drawn)	> 50 µg/mL
CCOC(=O)[C@]1(C#N)[C@@H](c2ccc(Cl)cc2)CN(C)[C@@]12C(=O)Nc1c(C)cc(C)cc12	50 µg/mL
CCOC(=O)[C@]1(C#N)[C@@H](c2ccc(Cl)c(Cl)c2)CN(C)[C@@]12C(=O)Nc1ccc(Cl)cc12	> 50 µg/mL
CCOC(=O)[C@]1(C#N)[C@@H](c2ccc(Cl)c(Cl)c2)CN(C)[C@@]12C(=O)Nc1c(C)cc(C)cc12	> 50 µg/mL
CCOC(=O)[C@]1(C#N)[C@@H](c2c(F)cccc2Cl)CN(C)[C@@]12C(=O)Nc1ccc(Cl)cc12	> 50 µg/mL
N#CC1(C#N)[C@@H](c2ccc(Cl)c(Cl)c2)C2CSCN2[C@@]12C(=O)Nc1ccccc12 (stereo partly drawn)	> 50 µg/mL
CCOC(=O)[C@]1(C#N)[C@@H](c2c(F)cccc2Cl)CN(C)[C@@]12C(=O)Nc1ccc([N+](=O)[O-])cc12	> 50 µg/mL
CC1(C)S[C@@H]2[C@H](NC(=O)[C@H](N)c3ccccc3)C(=O)N2[C@H]1C(=O)O	0.19 µg/mL
CN1C[C@H](c2ccc(Cl)c(Cl)c2)C(C#N)(C#N)[C@]12C(=O)Nc1ccc(Cl)cc12	> 50 µg/mL
CCOC(=O)[C@]1(C#N)[C@@H](c2cccs2)C2CSCN2[C@@]12C(=O)Nc1ccccc12 (stereo partly drawn)	> 50 µg/mL
CCOC(=O)[C@]1(C#N)[C@@H](c2c(F)cccc2Cl)CN(C)[C@@]12C(=O)Nc1c(C)cc(C)cc12	12.5 µg/mL
CCOC(=O)[C@]1(C#N)[C@@H](c2ccc(OC)cc2)CN(C)[C@@]12C(=O)Nc1c(C)cc(C)cc12	> 50 µg/mL

* * *

test system: Escherichia coli; assay: Antibacterial activity against Escherichia coli ATCC 9637 by spectrophotometric method; type: functional; conditions: W

compound	measuredOn	MIC
N#CC1(C#N)[C@@H](c2ccc(Cl)c(Cl)c2)C2CSCN2[C@@]12C(=O)Nc1ccccc12 (some centres undefined)	Escherichia coli	> 50 µg/mL
CCOC(=O)[C@]1(C#N)[C@@H](c2c(F)cccc2Cl)C2CSCN2[C@@]12C(=O)Nc1ccccc12 (some centres undefined)	Escherichia coli	> 50 µg/mL
CCOC(=O)[C@]1(C#N)[C@@H](c2c(F)cccc2Cl)CN(C)[C@@]12C(=O)Nc1ccc(Cl)cc12	Escherichia coli	> 50 µg/mL
CCOC(=O)[C@]1(C#N)[C@@H](c2ccc(Cl)cc2)CN(C)[C@@]12C(=O)Nc1c(C)cc(C)cc12	Escherichia coli	> 50 µg/mL
